Origin of measurements: patent US20100260765A1

measured_on: human KDR on cells (human, UniProt P35968 20-1356)
Sequence (P35968 20-1356): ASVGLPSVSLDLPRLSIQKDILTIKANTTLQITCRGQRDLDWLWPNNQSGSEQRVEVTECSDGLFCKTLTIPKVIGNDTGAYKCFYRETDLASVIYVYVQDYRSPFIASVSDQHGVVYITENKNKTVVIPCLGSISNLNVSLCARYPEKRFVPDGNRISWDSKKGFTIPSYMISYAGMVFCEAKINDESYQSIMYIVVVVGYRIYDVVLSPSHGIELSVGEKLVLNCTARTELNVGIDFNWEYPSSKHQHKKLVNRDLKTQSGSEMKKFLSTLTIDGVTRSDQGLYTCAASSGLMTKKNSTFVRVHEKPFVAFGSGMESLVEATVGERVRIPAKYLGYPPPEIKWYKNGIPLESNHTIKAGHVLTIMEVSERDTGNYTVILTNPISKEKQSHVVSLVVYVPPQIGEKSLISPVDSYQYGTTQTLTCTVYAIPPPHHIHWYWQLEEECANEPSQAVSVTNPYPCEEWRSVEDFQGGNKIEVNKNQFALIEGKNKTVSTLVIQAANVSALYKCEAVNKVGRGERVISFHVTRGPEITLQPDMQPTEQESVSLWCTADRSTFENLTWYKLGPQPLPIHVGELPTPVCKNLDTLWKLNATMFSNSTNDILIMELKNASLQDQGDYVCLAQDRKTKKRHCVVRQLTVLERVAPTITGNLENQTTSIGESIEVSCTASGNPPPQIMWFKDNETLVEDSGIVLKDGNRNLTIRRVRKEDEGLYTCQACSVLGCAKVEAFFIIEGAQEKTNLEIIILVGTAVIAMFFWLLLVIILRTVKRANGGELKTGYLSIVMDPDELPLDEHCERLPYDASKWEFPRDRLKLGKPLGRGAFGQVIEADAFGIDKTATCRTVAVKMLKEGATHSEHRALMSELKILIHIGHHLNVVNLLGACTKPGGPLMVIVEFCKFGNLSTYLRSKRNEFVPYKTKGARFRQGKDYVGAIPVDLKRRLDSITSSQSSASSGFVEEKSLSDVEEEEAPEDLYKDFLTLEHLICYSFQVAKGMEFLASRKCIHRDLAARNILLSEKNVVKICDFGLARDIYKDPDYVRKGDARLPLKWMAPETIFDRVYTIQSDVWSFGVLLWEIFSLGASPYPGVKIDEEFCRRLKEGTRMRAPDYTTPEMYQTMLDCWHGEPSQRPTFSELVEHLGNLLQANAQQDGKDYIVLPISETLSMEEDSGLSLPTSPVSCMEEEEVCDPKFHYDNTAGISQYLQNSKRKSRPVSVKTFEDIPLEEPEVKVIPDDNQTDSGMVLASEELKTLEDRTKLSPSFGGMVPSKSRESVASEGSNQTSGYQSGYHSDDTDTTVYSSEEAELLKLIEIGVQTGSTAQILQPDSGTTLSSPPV
assay_text: cell-based or functional assay
Entries and their % Inhibition (N = 2) of VEGF-C-mediated KDR activity, antibody 100 nM values follow.
result_type: % Inhibition (N = 2) of VEGF-C-mediated KDR activity, antibody 100 nM (%)

# binder, measured_value
data = [
    ("22B8 (antibody, V domains shown) VH: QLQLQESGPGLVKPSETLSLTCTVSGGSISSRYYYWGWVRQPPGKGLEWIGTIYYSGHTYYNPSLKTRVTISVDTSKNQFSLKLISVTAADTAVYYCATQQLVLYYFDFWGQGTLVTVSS VL: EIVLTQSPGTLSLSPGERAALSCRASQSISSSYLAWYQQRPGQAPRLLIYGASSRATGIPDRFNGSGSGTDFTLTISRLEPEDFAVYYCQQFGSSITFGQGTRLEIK", 77),
    ("33E1 (antibody, V domains shown) VH: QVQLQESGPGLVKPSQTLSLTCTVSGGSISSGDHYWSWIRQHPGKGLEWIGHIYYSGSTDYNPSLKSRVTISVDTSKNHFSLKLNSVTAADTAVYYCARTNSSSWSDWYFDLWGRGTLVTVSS VL: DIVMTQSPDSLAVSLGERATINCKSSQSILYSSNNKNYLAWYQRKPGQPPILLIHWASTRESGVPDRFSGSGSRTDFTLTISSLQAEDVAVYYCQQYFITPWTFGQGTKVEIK", 75),
    ("32F4 (antibody, V domains shown) VH: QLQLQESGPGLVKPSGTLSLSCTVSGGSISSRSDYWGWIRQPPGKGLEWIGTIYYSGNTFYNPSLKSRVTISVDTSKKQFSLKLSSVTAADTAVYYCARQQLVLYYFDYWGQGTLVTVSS VL: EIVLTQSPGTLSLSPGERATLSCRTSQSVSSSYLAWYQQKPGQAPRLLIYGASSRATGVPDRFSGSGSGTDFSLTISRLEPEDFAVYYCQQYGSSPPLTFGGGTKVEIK", 86),
]
